assay.explanation: APR_HepG2_P-H2AX_72hr: Apredica 72-hour HepG2 Assay for H2AX Phosphorylation (AID 2282916);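 further: phospho-histone H2A.x immunostain intensity per cell marking DNA damage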
condition.description: imaging, actives raise or lower the signal
Calls of active or inactive are those of the source. How the source made its calls: active means hit-call score of the fitted dose curve at least 0.9, where 1 is the maximum; inactive means score below 0.9.
Outcomes: YES for active, NO for inactive

| compound | category.label |
| --- | --- |
| CC(C)CC(C)O (configuration not stated) | NO |
| OCC(CO)(CO)CO | NO |
| NNC(=O)c1ccncc1 | NO |
| Cc1ncc([C@@H](CCCCCCc2ccc3c(n2)NCCC3)CC(=O)O)cn1 | YES |
| CCCCCCCC/C=C\CCCCCCCC(=O)OC[C@@H](O)[C@H]1OC[C@H](O)[C@H]1O | NO |
| CCc1ccc(O)c(C(C)(C)C)c1 | YES |
| CCn1nc(C)c2c1C(=O)NCC(c1ccc(O)cc1)=N2 | NO |

---

Read-out: E-selectin (Homo sapiens) (UniProt P16581)
Sequence (P16581 whole entry, looked up): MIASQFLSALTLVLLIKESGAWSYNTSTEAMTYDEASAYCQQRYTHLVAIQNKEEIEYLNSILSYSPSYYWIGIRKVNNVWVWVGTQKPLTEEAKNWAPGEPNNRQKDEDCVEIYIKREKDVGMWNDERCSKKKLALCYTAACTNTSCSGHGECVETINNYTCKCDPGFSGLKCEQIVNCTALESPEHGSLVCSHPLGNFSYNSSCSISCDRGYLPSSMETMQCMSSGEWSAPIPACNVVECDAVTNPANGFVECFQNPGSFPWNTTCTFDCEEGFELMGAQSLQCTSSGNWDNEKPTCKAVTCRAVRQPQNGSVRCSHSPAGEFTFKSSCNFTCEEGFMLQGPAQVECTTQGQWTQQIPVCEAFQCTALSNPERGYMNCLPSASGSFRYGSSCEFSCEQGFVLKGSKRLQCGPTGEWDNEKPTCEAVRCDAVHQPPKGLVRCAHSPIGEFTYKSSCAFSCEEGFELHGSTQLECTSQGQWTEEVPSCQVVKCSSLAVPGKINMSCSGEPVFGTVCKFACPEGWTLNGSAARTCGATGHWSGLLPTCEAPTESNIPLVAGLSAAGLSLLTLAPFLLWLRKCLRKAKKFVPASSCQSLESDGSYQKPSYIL
assay.explanation: BSK_LPS_Eselectin: BioMAP Diversity Plus: LPS Assay for Eselectin Biomarker Activity (AID 2283077)
condition.description: primary human HUVEC with PBMC; actives raise or lower the signal
The source made the active and inactive calls. The calls were made as follows: active = hit-call score of the fitted dose curve at least 0.9, where 1 is the maximum; inactive = score below 0.9.
Outcomes: class 1 for active, class 0 for inactive

| smiles.representation | category.label |
| --- | --- |
| CC[C@H](C)C(=O)O[C@H]1C[C@H](O)C=C2C=C[C@H](C)[C@H](CC[C@@H](O)C[C@@H](O)CC(=O)O)[C@H]21 | class 0 |
| CCCCCOC(C)=O | class 0 |
| CCCCCCCCN(C)C | class 0 |
| O=C(O)c1ccc2c(c1)nc(C(=O)NC1CCN(C3CC3)CC1)n2Cc1cc(-c2ccc(Cl)s2)on1 | class 0 |
| OCc1ccccc1 | class 0 |
| CCc1ccc(O)c(C(C)(C)C)c1 | class 0 |
| CC(C)c1nnc2ccc(-c3ocnc3-c3cc(F)ccc3F)cn12 | class 1 |
| CCCC(CCC)C(=O)O | class 0 |
| OCc1c[nH]c2ccccc12 | class 0 |
| COc1cc2c(c(OC)c1OC)-c1ccc(OC)c(=O)cc1[C@@H](NC(C)=O)CC2 | class 0 |
| Cc1cccc(O)c1C | class 0 |
| OCCNCCO | class 0 |
| NC(=O)NN=Cc1ccc([N+](=O)[O-])o1 | class 0 |

---

assay.explanation: BSK_CASM3C_Proliferation: Cell Proliferation Assessment in the BioMAP Diversity Plus: CASM3C Assay (AID 2283047);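 further: sulforhodamine B total protein stain as relative cell number at 560 nm; sub-confluent cells exposed 48 h before staining; fitted both ways against DMSO so gain or loss of cell number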
condition.description: primary human coronary artery smooth muscle cells
Active and inactive are the calls of the source. Rule for the calls: active = hit-call score of the fitted dose curve at least 0.9, where 1 is the maximum; inactive = score below 0.9.
Outcomes: 1.0 = active, 0.0 = inactive

| smiles.representation | category.label |
| --- | --- |
| Nc1ccn([C@@H]2O[C@H](CO)[C@@H](O)[C@@H]2O)c(=O)n1 | 1.0 |
| NC(N)=O | 0.0 |
| CCOC(N)=O | 0.0 |
| c1ccc2cc3ccccc3cc2c1 | 0.0 |

---

Read-out: CD40, CD40 (gene 958)
assay.explanation: BSK_SAg_CD40: BioMAP Diversity Plus: SAg Assay for CD40 Biomarker Activity (AID 2283088)
condition.description: primary human HUVEC with PBMC; actives raise or lower the signal
Active and inactive are the calls of the source. How the source made its calls: active means hit-call score of the fitted dose curve at least 0.9, where 1 is the maximum; inactive means score below 0.9.
Outcomes: active, inactive

| compound | category.label |
| --- | --- |
| CCCCCOC(C)=O | inactive |
| CC[C@H](C)C(=O)O[C@H]1C[C@H](O)C=C2C=C[C@H](C)[C@H](CC[C@@H](O)C[C@@H](O)CC(=O)O)[C@H]21 | inactive |
| COS(C)(=O)=O | inactive |
| OC(O)(C(F)C(O)(O)C(F)(F)F)C(F)(F)F | inactive |
| COc1cc(C(C)C)c2c(c1)S(=O)(=O)N(COc1cc(=O)n3cccc(OCCN4CCCCC4)c3n1)C2=O | active |
| CC1(C)C(=O)N(Cl)C(=O)N1Cl | inactive |
| O=S(=O)(O)c1ccc(N=Nc2c(O)ccc3cc(S(=O)(=O)O)ccc23)cc1 | inactive |
| CCCCCCCCCCCCCCCCOS(=O)(=O)O | inactive |
| Cn1cc[nH]c1=S | inactive |
| C=CN1CCCC1=O | inactive |
| Cc1ncc([C@@H](CCCCCCc2ccc3c(n2)NCCC3)CC(=O)O)cn1 | inactive |
| OCCC(F)(F)C(F)(F)C(F)(F)C(F)(F)F | inactive |
| CCCCCCCC1CCC(=O)O1 (configuration not stated) | inactive |
| c1ccc2ncccc2c1 | inactive |
| CCc1ccc(O)c(C(C)(C)C)c1 | active |
| OCc1c[nH]c2ccccc12 | active |
| NCC(F)(F)C(F)(F)C(F)(F)C(F)(F)F | inactive |
| OCCOCCOCCO | inactive |
| C[Si](C)(C)C(F)(F)C(F)(F)C(F)(F)F | inactive |
| C[C@@H](Oc1ccc(CNC(=O)c2cccnc2Oc2ccc3c(c2)OCO3)c(F)c1)C(=O)O | inactive |
| Nc1ccn([C@@H]2O[C@H](CO)[C@@H](O)[C@@H]2O)c(=O)n1 | inactive |
| CCCCCCCCN(C)C | inactive |
| CNC(C)=O | inactive |
| FC(F)C(F)(F)COCC1CO1 (configuration not stated) | inactive |
| Cc1ccc(S(=O)(=O)NC(=O)NN2CCCCCC2)cc1 | inactive |
| CC(C)C(=O)Nc1ccc([N+](=O)[O-])c(C(F)(F)F)c1 | inactive |
| CCCCCCOC(=O)CC(CC(=O)OCCCCCC)(OC(=O)CCC)C(=O)OCCCCCC | inactive |

---

assay.explanation: CCTE_Harrill_HTTr_CellCount_MCF7: CCTE's Cell Proliferation Assessment for the High-Throughput Transcriptomics (HTTr) Platform, Harrill Lab (AID 2284012);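 further: count of Hoechst-stained nuclei per well by high-content imaging in MCF-7 cells; cells exposed to compound for six hours; intended direction is loss of nuclei count meaning fewer cells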
Inconclusive results are not listed. Activity calls are given as the source filed them. How the source made its calls: active means hit-call score of the fitted dose curve at least 0.9, where 1 is the maximum; inconclusive means response in the unintended direction; inactive means score below 0.9.
Outcomes: true for active, false for inactive

| smiles.representation | category.label |
| --- | --- |
| COc1cc2c(c(OC)c1OC)-c1ccc(OC)c(=O)cc1[C@@H](NC(C)=O)CC2 | false |
| CCN(CC)C(=S)SSC(=S)N(CC)CC | false |
| COS(C)(=O)=O | false |
| c1ccc(C(O[C@@H]2CCCN(CCc3ccc4c(c3)OCO4)C2)c2ccccc2)cc1 | false |
| O=S(=O)(O)c1ccc(N=Nc2c(O)ccc3cc(S(=O)(=O)O)ccc23)cc1 | false |
| O=C(NO)C1(NS(=O)(=O)c2ccc(Oc3ccc(F)cc3)cc2)CCOCC1 | false |
| OCc1ccccc1 | false |
| CCCC(CCC)C(=O)O | false |
| OCCNCCO | false |
| CCCCCCOC(=O)CC(CC(=O)OCCCCCC)(OC(=O)CCC)C(=O)OCCCCCC | false |
| OC[C@H]1O[C@@H]2O[C@H]3[C@H](O)[C@@H](O)[C@@H](O[C@H]4[C@H](O)[C@@H](O)[C@@H](O[C@H]5[C@H](O)[C@@H](O)[C@@H](O[C@H]6[C@H](O)[C@@H](O)[C@@H](O[C@H]7[C@H](O)[C@@H](O)[C@@H](O[C@H]1[C@H](O)[C@H]2O)O[C@@H]7CO)O[C@@H]6CO)O[C@@H]5CO)O[C@@H]4CO)O[C@@H]3CO | false |
| CCCCCCCC/C=C\CCCCCCCC(=O)OC[C@@H](O)[C@H]1OC[C@H](O)[C@H]1O | false |
| CC(C)C(=O)Nc1ccc([N+](=O)[O-])c(C(F)(F)F)c1 | false |
| CCn1nc(C)c2c1C(=O)NCC(c1ccc(O)cc1)=N2 | false |
| NC(N)=O | false |
| c1ccc2c(c1)-c1cccc3c1c-2cc1ccccc13 | false |
| Cc1ncc([C@@H](CCCCCCc2ccc3c(n2)NCCC3)CC(=O)O)cn1 | true |
| CCOc1ccc2[nH]cc(C(=O)NCc3ccccc3)c(=O)c2n1 | false |
| O=C(O)c1ccc2c(c1)nc(C(=O)NC1CCN(C3CC3)CC1)n2Cc1cc(-c2ccc(Cl)s2)on1 | false |
| CC(=O)c1ccccc1 | false |

---

Test system: Sodium/Iodide Symporter (NIS), SLC5A5 (gene 6528)
assay.explanation: CPHEA_Stoker_NIS_Inhibition_RAIU: CPHEA's Radioactive Iodide Uptake (RAIU) Assay for Sodium/Iodide Symporter (NIS) Inhibition, Stoker and Laws Labs (AID 2283841)
Inconclusive results are not listed. Active and inactive are the calls of the source. Rule for the calls: active = hit-call score of the fitted dose curve at least 0.9, where 1 is the maximum; inconclusive = response in the unintended direction; inactive = score below 0.9.
Outcomes: yes (1) (active), no (0) (inactive)

| compound | category.label |
| --- | --- |
| CCCCOC(=O)c1ccccc1 | no (0) |
| C=CCc1cc(S(=O)(=O)c2ccc(O)c(CC=C)c2)ccc1O | yes (1) |
| O=S(=O)(O)CCC(F)(F)C(F)(F)C(F)(F)C(F)(F)C(F)(F)C(F)(F)F | no (0) |
| c1ccc(C(O[C@@H]2CCCN(CCc3ccc4c(c3)OCO4)C2)c2ccccc2)cc1 | no (0) |
| NC(=O)N1c2ccccc2C=Cc2ccccc21 | no (0) |
| CCCCC(CC)C(=O)OCCOCCOCCOC(=O)C(CC)CCCC (stereo unspecified) | no (0) |
| Cc1nccn1-c1ccc(Sc2cccc(C3(C(N)=O)CCOCC3)c2)cc1 | no (0) |
| OCC(CO)(CO)CO | no (0) |
| CC(C)C(=O)Nc1ccc([N+](=O)[O-])c(C(F)(F)F)c1 | no (0) |
| CCc1ccc(O)c(C(C)(C)C)c1 | no (0) |
| CC(C)c1nnc2ccc(-c3ocnc3-c3cc(F)ccc3F)cn12 | no (0) |

The reported measurements were obtained from PubChem BioAssay (EPA / NIEHS).
